Assay: self-splicing fitness, log relative to wild type (ln ratio); higher = more splicing; Tetrahymena group I intron in knt gene, E. coli kanamycin selection, DiMSum; sequences stand for … in CUCUCU…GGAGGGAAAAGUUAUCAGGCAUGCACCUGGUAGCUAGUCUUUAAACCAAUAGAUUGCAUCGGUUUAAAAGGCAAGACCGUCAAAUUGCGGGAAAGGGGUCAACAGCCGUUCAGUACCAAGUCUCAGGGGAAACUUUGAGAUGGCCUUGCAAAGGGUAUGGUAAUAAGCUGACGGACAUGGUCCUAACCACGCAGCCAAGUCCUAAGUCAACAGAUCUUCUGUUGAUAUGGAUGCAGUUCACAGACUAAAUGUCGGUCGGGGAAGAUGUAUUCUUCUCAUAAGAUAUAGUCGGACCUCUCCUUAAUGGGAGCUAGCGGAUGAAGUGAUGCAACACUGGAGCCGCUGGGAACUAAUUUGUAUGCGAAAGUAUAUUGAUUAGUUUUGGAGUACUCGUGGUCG;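 further: selection with 25 µg/mL kanamycin versus none on LB agar overnight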
Conditions: 37 °C
recorded.endpoint: self-splicing fitness (ln)

sequence_record=ACUGAGCAAUAUUACGGGAA endpoint_value=-2.48
sequence_record=GUGGAGCAAUAUUACGAGAU endpoint_value=-2.22
sequence_record=AGACAGCAAUAUUACGCAAU endpoint_value=-0.644
sequence_record=CGGAAGCAAUAUUACGUCUA endpoint_value=-0.659
sequence_record=UGUAAGCAAUAUUACGAGUU endpoint_value=-2.69
sequence_record=AGAUAGCAAUAUUACGUCUC endpoint_value=-3.05
sequence_record=CCUCAGCAAUAUUACGCAUC endpoint_value=-2.85
sequence_record=AAAUAGCAAUAUUACGCAAA endpoint_value=-1.66
sequence_record=UAUGAGCAAUAUUACGACGA endpoint_value=-1.62
sequence_record=CGAUAGCAAUAUUACGGGCA endpoint_value=-1.53
sequence_record=CUACAGCAAUAUUACGAAGU endpoint_value=-2.52
sequence_record=GUCCAGCAAUAUUACGAUAU endpoint_value=0.114
sequence_record=UGAAAGCAAUAUUACGACUA endpoint_value=0.139
sequence_record=UACCAGCAAUAUUACGGCUA endpoint_value=0.554
sequence_record=GACGAGCAAUAUUACGUUUA endpoint_value=-0.752
sequence_record=CUAUAGCAAUAUUACGCUGA endpoint_value=-2.32

###

Assay: self-splicing fitness, log relative to wild type (ln ratio); higher = more splicing; Tetrahymena group I intron in knt gene, E. coli kanamycin selection, DiMSum; sequences stand for … in CUCUCU…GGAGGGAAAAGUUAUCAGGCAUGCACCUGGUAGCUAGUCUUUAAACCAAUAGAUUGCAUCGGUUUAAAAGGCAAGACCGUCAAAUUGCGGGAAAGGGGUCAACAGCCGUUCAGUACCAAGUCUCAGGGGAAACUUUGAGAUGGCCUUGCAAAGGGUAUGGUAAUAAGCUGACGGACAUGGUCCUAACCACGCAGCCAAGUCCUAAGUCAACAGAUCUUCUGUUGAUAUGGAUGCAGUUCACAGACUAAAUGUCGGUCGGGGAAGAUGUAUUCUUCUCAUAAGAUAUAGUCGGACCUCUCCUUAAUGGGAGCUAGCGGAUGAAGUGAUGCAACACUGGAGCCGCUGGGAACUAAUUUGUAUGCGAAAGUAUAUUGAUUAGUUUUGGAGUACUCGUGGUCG
Conditions: 30 °C
Categories are defined by ranges of self-splicing fitness (ln), namely zone 1 = under -3, zone 2 = from -3 up to -1, zone 3 = -1 and over

sequence_record=CUCUAGCAAUAUUACGGUGG class_label="zone 2"
sequence_record=GCAUAGCAAUAUUACGUUCU class_label="zone 2"
sequence_record=CUAUAGCAAUAUUACGGGCG class_label="zone 3"
sequence_record=CUACAGCAAUAUUACGAAGG class_label="zone 2"
sequence_record=ACUCAGCAAUAUUACGUGGG class_label="zone 1"
sequence_record=CUGCAGCAAUAUUACGCACG class_label="zone 2"
sequence_record=GAACAGCAAUAUUACGCGGA class_label="zone 2"
sequence_record=CGUCAGCAAUAUUACGUGAA class_label="zone 2"
sequence_record=CGGUAGCAAUAUUACGAUAA class_label="zone 2"
sequence_record=GAUCAGCAAUAUUACGCAAU class_label="zone 2"
sequence_record=CAUUAGCAAUAUUACGGUGA class_label="zone 2"
sequence_record=UAACAGCAAUAUUACGUCGG class_label="zone 3"
sequence_record=UCGGAGCAAUAUUACGAGCU class_label="zone 2"
sequence_record=UGCGAGCAAUAUUACGACCA class_label="zone 3"
sequence_record=AUAGAGCAAUAUUACGCAUU class_label="zone 2"
sequence_record=AGCCAGCAAUAUUACGCAAG class_label="zone 1"
sequence_record=AGGGAGCAAUAUUACGAAGG class_label="zone 2"
sequence_record=GCUUAGCAAUAUUACGACUG class_label="zone 2"
sequence_record=UUCCAGCAAUAUUACGACUG class_label="zone 1"
sequence_record=GCUAAGCAAUAUUACGAGGA class_label="zone 2"
sequence_record=CCGUAGCAAUAUUACGGCCU class_label="zone 2"
sequence_record=AUCAAGCAAUAUUACGCGAG class_label="zone 2"
sequence_record=GGCAAGCAAUAUUACGUAGA class_label="zone 3"
sequence_record=ACCGAGCAAUAUUACGUUAG class_label="zone 1"
sequence_record=GCUCAGCAAUAUUACGAUAA class_label="zone 3"
sequence_record=UCUUAGCAAUAUUACGUAGA class_label="zone 2"
sequence_record=AAGAAGCAAUAUUACGACUA class_label="zone 3"
sequence_record=AACAAGCAAUAUUACGAAGA class_label="zone 2"
sequence_record=UCCUAGCAAUAUUACGAUAA class_label="zone 1"
sequence_record=AUAAAGCAAUAUUACGUGUA class_label="zone 2"
sequence_record=GUCAAGCAAUAUUACGCGAU class_label="zone 1"
sequence_record=CGUUAGCAAUAUUACGGCUC class_label="zone 2"
sequence_record=CUUGAGCAAUAUUACGCGUA class_label="zone 1"
sequence_record=UUCCAGCAAUAUUACGUCCC class_label="zone 2"
sequence_record=CAUGAGCAAUAUUACGUAGC class_label="zone 2"
sequence_record=AUUAAGCAAUAUUACGCUCA class_label="zone 3"
sequence_record=GAUGAGCAAUAUUACGUAGG class_label="zone 1"
sequence_record=UAUAAGCAAUAUUACGCACU class_label="zone 3"
sequence_record=AUCCAGCAAUAUUACGAGUU class_label="zone 2"
sequence_record=UCAUAGCAAUAUUACGGAUA class_label="zone 2"
sequence_record=UGAUAGCAAUAUUACGUACA class_label="zone 3"
sequence_record=GCCAAGCAAUAUUACGCGCU class_label="zone 2"
sequence_record=AAUAAGCAAUAUUACGGUGG class_label="zone 1"
sequence_record=GCGUAGCAAUAUUACGGCCU class_label="zone 3"
sequence_record=UCUAAGCAAUAUUACGAGCG class_label="zone 2"
sequence_record=UCUGAGCAAUAUUACGCAAG class_label="zone 1"
sequence_record=CGAAAGCAAUAUUACGUUCA class_label="zone 3"
sequence_record=CUAGAGCAAUAUUACGAGUA class_label="zone 1"
sequence_record=UAUCAGCAAUAUUACGAUAU class_label="zone 2"
sequence_record=UCCAAGCAAUAUUACGACUA class_label="zone 2"
sequence_record=AAACAGCAAUAUUACGACUA class_label="zone 3"
sequence_record=ACGCAGCAAUAUUACGAAGG class_label="zone 2"
sequence_record=UGCAAGCAAUAUUACGGACG class_label="zone 3"
sequence_record=AACAAGCAAUAUUACGUCUA class_label="zone 3"
sequence_record=CUUGAGCAAUAUUACGCGGC class_label="zone 2"
sequence_record=UCUGAGCAAUAUUACGGCAU class_label="zone 2"
sequence_record=CUAUAGCAAUAUUACGUUGU class_label="zone 1"
sequence_record=UUCAAGCAAUAUUACGUUGA class_label="zone 2"
sequence_record=CCCAAGCAAUAUUACGCACG class_label="zone 2"
sequence_record=UGACAGCAAUAUUACGGUUA class_label="zone 3"
sequence_record=GGCAAGCAAUAUUACGCACA class_label="zone 3"
sequence_record=AAAGAGCAAUAUUACGCAAA class_label="zone 1"
sequence_record=CCCGAGCAAUAUUACGGCAG class_label="zone 2"
sequence_record=GGACAGCAAUAUUACGAUAC class_label="zone 3"

###

Experiment: self-splicing fitness, log relative to wild type (ln ratio); higher = more splicing; Tetrahymena group I intron in knt gene, E. coli kanamycin selection, DiMSum; sequences stand for … in CUCUCU…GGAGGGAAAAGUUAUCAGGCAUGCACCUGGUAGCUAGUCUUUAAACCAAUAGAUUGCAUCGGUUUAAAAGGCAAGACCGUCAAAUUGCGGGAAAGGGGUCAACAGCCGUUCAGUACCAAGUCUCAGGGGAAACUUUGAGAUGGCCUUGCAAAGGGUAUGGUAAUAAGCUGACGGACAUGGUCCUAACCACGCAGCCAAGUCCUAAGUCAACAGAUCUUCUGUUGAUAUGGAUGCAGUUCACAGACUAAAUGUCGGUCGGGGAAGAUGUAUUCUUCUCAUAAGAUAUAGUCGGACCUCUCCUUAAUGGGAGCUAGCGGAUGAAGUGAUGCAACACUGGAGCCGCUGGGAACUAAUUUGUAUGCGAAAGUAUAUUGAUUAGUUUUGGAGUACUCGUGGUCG
Settings: 30 °C
recorded.endpoint: self-splicing fitness (ln)

sequence_record=UCGUAGCAAUAUUACGCCCU recorded_endpoint="self-splicing fitness (ln)" endpoint_value=-1
sequence_record=CGUAAGCAAUAUUACGUGUC recorded_endpoint="self-splicing fitness (ln)" endpoint_value=-1.85
sequence_record=UUCCAGCAAUAUUACGCCUA recorded_endpoint="self-splicing fitness (ln)" endpoint_value=-0.199
sequence_record=CCGUAGCAAUAUUACGUGCG recorded_endpoint="self-splicing fitness (ln)" endpoint_value=-2.39
sequence_record=AUUCAGCAAUAUUACGAUCG recorded_endpoint="self-splicing fitness (ln)" endpoint_value=-1.87
sequence_record=CGGAAGCAAUAUUACGGAGC recorded_endpoint="self-splicing fitness (ln)" endpoint_value=-2.75
sequence_record=CGGUAGCAAUAUUACGAGAU recorded_endpoint="self-splicing fitness (ln)" endpoint_value=-3.19
sequence_record=AAUAAGCAAUAUUACGCCCC recorded_endpoint="self-splicing fitness (ln)" endpoint_value=0.198
sequence_record=CGCUAGCAAUAUUACGCGGU recorded_endpoint="self-splicing fitness (ln)" endpoint_value=-3.4
sequence_record=UGUCAGCAAUAUUACGAGAA recorded_endpoint="self-splicing fitness (ln)" endpoint_value=-1.43
sequence_record=GCGAAGCAAUAUUACGGGGG recorded_endpoint="self-splicing fitness (ln)" endpoint_value=-2.43
sequence_record=CGAGAGCAAUAUUACGUUUG recorded_endpoint="self-splicing fitness (ln)" endpoint_value=-4.63
sequence_record=GAAAAGCAAUAUUACGGUGC recorded_endpoint="self-splicing fitness (ln)" endpoint_value=-2.02
sequence_record=GGUGAGCAAUAUUACGAUAA recorded_endpoint="self-splicing fitness (ln)" endpoint_value=-1.22
sequence_record=UCUGAGCAAUAUUACGGUAA recorded_endpoint="self-splicing fitness (ln)" endpoint_value=-2.84
sequence_record=UUAGAGCAAUAUUACGGCAA recorded_endpoint="self-splicing fitness (ln)" endpoint_value=-0.627
